Below is a list of entries, each paired with its recorded pIC50 value.
Test system: OVCAR-8
Test protocol: SRB antiproliferation assay, OVCAR-8 ovarian cancer
Condition: Homo sapiens, OVCAR-8, read-out: IC50 OVCAR-8
pIC50: −log10 of the molar value.

| Structure notation | pIC50 |
| --- | --- |
| COc1cc(C(=O)c2csc(-c3ccc(CN)cc3)n2)cc(OC)c1OC | 7.59 |
| COc1cc(C(=O)c2cccc(-c3ccccc3)n2)cc(OC)c1OC | 7.48 |

---

Below is a list of entries, each paired with its recorded IC50 value.
System: A375
Test protocol: SRB antiproliferation assay, A375 melanoma
Format: cell-based, human
Condition: Homo sapiens, A-375, SRB; read-out: IC50 A375 (converted)

| Compound | Measurement qualifier | IC50, µM |
| --- | --- | --- |
| O=C(c1cc(O)c(O)c(O)c1)c1csc(-c2ccccc2)n1 [33-33] | = | 9.8 |
| COc1cc(C(=O)c2cscn2)cc(OC)c1OC [compound 10] | > | 100 |
| O=C(c1ccc2c(c1)OCO2)N1CCC(c2ccccc2)CC1 [19-19] | > | 20 |
| COc1cc(-c2nc(C(=O)c3ccc(F)cc3)cn2C(=O)c2ccc(F)cc2)cc(OC)c1OC [30-30] | > | 10 |
| COc1cc(C(=O)c2csc(-c3ccc(Br)cc3)n2)cc(OC)c1OC [8u] | = | 0.013 |

---

System: B16-F1
Test protocol: SRB antiproliferation assay, B16-F1 melanoma
Assay type: cell-based, mouse
Condition: Mus musculus, B16-F1, read-out: IC50 B16-F1
pIC50: −log10 of the molar value.

| Compound | System under test | pIC50 |
| --- | --- | --- |
| COc1cc(C(=O)c2csc(-c3cccs3)n2)cc(OC)c1OC [8z] | B16-F1 | 7.42 |
| COc1cc(C(=O)c2csc(-c3ccc(N)cc3)n2)cc(OC)c1OC [26-26] | B16-F1 | 7.85 |

---

Test system: LNCaP
Test protocol: SRB antiproliferation assay, LNCaP prostate cancer
Condition: read-out: IC50 LNCaP; SRB, 96 h; listed as 4b(4S)

| Structure notation | IC50 |
| --- | --- |
| COc1cc(NC(=O)[C@@H]2CSC(c3ccccc3)=N2)cc(OC)c1OC | 16.8 µM |

---

Below is a list of entries, each paired with its recorded IC50 value.
Tested on: A375
Test protocol: SRB antiproliferation assay, A375 melanoma
Type: cell-based, human
Condition: Homo sapiens, A-375, SRB; read-out: IC50 A375 (converted)
From the text: For melanoma assays, one human melanoma cell line (A375) and one mouse melanoma cell line (B16-F1) were used. […] Fibroblast cells were used as a control to determine the selectivity of these compounds against melanoma. Human dermal fibroblast cells were purchased from Cascade Biologics, Inc., Portland, Oreg., USA.
Endpoint: IC50 (µM)

| Structure notation | Endpoint | Measurement qualifier | Numeric result |
| --- | --- | --- | --- |
| COc1cc(C(=O)c2csc(-c3ccccc3F)n2)cc(OC)c1OC | IC50 | = | 0.03 |
| COc1cc(C(=O)c2csc(-c3ccc(C#N)cc3)n2)cc(OC)c1OC | IC50 | = | 0.059 |
| Cc1ccc(-c2nc(C(=O)c3ccc(F)cc3)cs2)cc1 | IC50 | = | 3.47 |
| COc1cc(C(=O)c2csc(-c3ccc(C(F)(F)F)cc3)n2)cc(OC)c1OC | IC50 | = | 0.023 |
| COc1cc(C(=O)c2csc(-c3ccc([N+](=O)[O-])cc3)n2)cc(OC)c1OC | IC50 | = | 0.038 |
| O=C(c1csc(-c2ccccc2)n1)c1c(F)c(F)c(F)c(F)c1F | IC50 | = | 4.3 |
| O=C(c1ccc(F)cc1)N1CCC(c2ccccc2)CC1 | IC50 | > | 20 |
| COc1cc(C(=O)c2c[nH]c(-c3cn(S(=O)(=O)c4ccccc4)c4ccccc34)n2)cc(OC)c1OC | IC50 | = | 0.481 |
| COc1cc(C(=O)c2csc(-c3ccc4[nH]ccc4c3)n2)cc(OC)c1OC | IC50 | = | 0.025 |
| COc1cc(C(=O)c2csc(-c3ccccc3)n2)cc(OC)c1O | IC50 | > | 10 |

Origin of measurements: patent US10865196B2
